assay: NCI Yeast Anticancer Drug Screen. Data for the wt1 strain (AID 149);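 also: 0% = growth of vehicle-treated wt1 cultures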; details: S. cerevisiae wt1 strain (SPY 50644) growth inhibition; at 33.0 µM
Compounds without any hit were thinned out: in the full panel of roughly 79,000, 15% have a hit. Calls of active or inactive are those of the source. Rule as the data show it: active = growth inhibition above about 70%; inactive = the rest.
Pick from active, inactive when you respond.

Take a look at these entries with their results.
>  <COMPOUND>
O=C1c2cc([N+](=O)[O-])ccc2-c2cccc(F)c21

>  <LABEL>
inactive

$$$$
>  <COMPOUND>
O=C(c1ccc(Cl)cc1Cl)C(Cl)Cl

>  <LABEL>
inactive

$$$$
>  <COMPOUND>
NC(=S)N/N=C\c1nccc2ccccc12

>  <LABEL>
active

$$$$

Hello, I am checking results. What call was entered for C=C(CN(C)C)C(=O)c1cc(C)ccc1C ?
active

----------
Can you tell me growth inhibition for the items I'm about to list?
assay: NCI Yeast Anticancer Drug Screen. Data for the CLN2oe strain (AID 163);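 also: 0% = growth of vehicle-only control cultures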; conditions: S. cerevisiae CLN2oe strain, at 1.2 µM, active compounds read high
This is part of a sample that, as a whole, favours compounds with a hit. Of some 79,000 tested, about 15% had one in any assay.
Give bare numbers, in %.

# count of solved cases: 5
>  <COMPOUND>
Cc1ccc(CCC2=CCCc3c2ccc2ccccc32)cc1

>  <growth inhibition / %>
-5

$$$$
>  <COMPOUND>
C/C(=N\NC(=S)N1CCCCC1)c1cccc(C)n1

>  <growth inhibition / %>
50

$$$$
>  <COMPOUND>
O=[N+]([O-])c1ccc(=S)[nH]c1

>  <growth inhibition / %>
-1

$$$$
>  <COMPOUND>
COC1C=COC2(C)Oc3c(C)c(O)c4c(c3C2=O)/C(=N/C2CCC(O)OC2C)C=C(NC(=O)/C(C)=C\C(=O)C2CC2C(O)C(C)C(O)C(C)C(OC(C)=O)C1C)C4=O (centres undefined)

>  <growth inhibition / %>
-11

$$$$
>  <COMPOUND>
CC(=O)Nc1ccc(/C=C(\C#N)c2ccc(C)cc2)cc1

>  <growth inhibition / %>
-3

$$$$

Hi there! I need growth inhibition for each item below, if you can.
1. C[C@H](CCC(=O)NN)[C@H]1CC[C@H]2[C@@H]3CC[C@@H]4C[C@H](O)CC[C@]4(C)[C@H]3CC[C@]12C
2. Cc1ccc(S/N=C\c2ccccc2O)cc1
3. C[C@@H]1C[C@H]2[C@@H]3CCC4=CC(=O)C=C[C@]4(C)[C@@]3(Cl)[C@@H](Cl)C[C@]2(C)[C@@]1(O)C(=O)COP(=O)(O)O
4. CCc1ncnc2cc(OCC3CO3)c(OC)cc12 (centres undefined)

[-4, 2, -10, 20]

----------
experiment: NCI Yeast Anticancer Drug Screen. Data for the bub3 strain (AID 167); conditions: S. cerevisiae bub3 mutant strain, at 50.0 µM (retest, dose inferred, filed as 5.0), active compounds read high
This is part of a sample that, as a whole, favours compounds with a hit. Of some 79,000 tested, about 15% had one in any assay. The source made the active and inactive calls. Cut-off read from the data, not from the text of the source: active = growth inhibition above about 70%; inactive = the rest.
Please go through the items and note down their growth inhibition.

>  <COMPOUND>
COc1ccc(Br)c(C(=O)Sc2nnnn2-c2cccc(Cl)c2)c1

>  <growth inhibition>
81% (active)

$$$$
>  <COMPOUND>
Oc1ccc(NCn2c(=S)sc3ccccc32)cc1

>  <growth inhibition>
98% (active)

$$$$
>  <COMPOUND>
CNC(=O)OCc1c(COC(=O)NC)c(-c2ccc(-c3ccccc3)cc2)n(C)c1C

>  <growth inhibition>
23% (inactive)

$$$$
>  <COMPOUND>
C[Si](C)(C)CNC(=O)OCc1ccccc1

>  <growth inhibition>
93% (active)

$$$$
>  <COMPOUND>
CCCS(=O)(=O)Nc1ccc(Nc2c3ccccc3nc3ccccc23)c(OC)c1

>  <growth inhibition>
98% (active)

$$$$
>  <COMPOUND>
CC(=O)Cc1ccc[cH-]1.[Fe+2].c1cc[cH-]c1

>  <growth inhibition>
15% (inactive)

$$$$

Kindly give each listed record's growth inhibition.
1. Clc1cccc(C(Nc2nncs2)Nc2nncs2)c1Cl
2. Nc1ccn(C2OC(CO)C3[O][Sn]([c]4ccccc4)([c]4ccccc4)[O]C32)c(=O)n1 (configuration not stated)
3. CC1=C(SCCO)C(=O)c2ccccc2C1=O
4. CC1=C(C)Cc2c(O)ccc(O)c2C1
5. Cc1nc(-[n+]2nc(-c3ccncc3)nn2-c2ccccc2)sc1C
6. O=Cc1cccc2ccc3ccccc3c12

14% (inactive)
41% (inactive)
77% (active)
99% (active)
60% (inactive)
81% (active)

----------
Please provide measured growth inhibition for the entries that follow.
assay: NCI Yeast Anticancer Drug Screen. Data for the bub3 strain (AID 167); details: S. cerevisiae bub3 mutant strain, at 50.0 µM (retest, dose inferred, filed as 5.0), active compounds read high
Compounds without any hit were thinned out: in the full panel of roughly 79,000, 15% have a hit.
Give bare numbers, in %.

Take a look at these entries with their results.
>  <COMPOUND>
O=C(c1ccc(Cl)cc1)C1OC12C(=O)Nc1ccccc12 (stereo not given)

>  <UNIT_STRING>
%

>  <growth inhibition>
100

$$$$
>  <COMPOUND>
CCCCCCCCCCC(=O)Cl

>  <UNIT_STRING>
%

>  <growth inhibition>
64

$$$$

Please look at the items below and tell me growth inhibition for each one, in order.
1. O=C1C=CC(=O)c2c(O)c(Nc3ccc(OC(F)(F)F)cc3)c(Cl)c(O)c21
2. COc1cc(C2SCC(=O)N2c2ccc(-c3ccc(-n4c(-c5ccccc5)nc5ccccc5c4=O)cc3)cc2)cc(OC)c1OC (stereo not given)
3. O=C1OC(=O)C2CCCC3CCCC1C32 (stereo not given)
4. Cn1c2ccccc2c(=O)c2cc(NC(=O)CCCCC(=O)Nc3ccc4c(c3)c(=O)c3ccccc3n4C)ccc21
5. COc1ccc2nc3c([N+](=O)[O-])ccc(NCCN(C)C)c3c(NCCN(C)C)c2c1
6. COc1cc2c(c(OC)c1OC)-c1c(cc3c(c1OC)OCO3)CC(C)C(C)(O)C2OC(=O)c1ccccc1 (stereo not given)
7. Nc1ncncc1C(C1=C(O)COC1=O)C1=C(O)COC1=O

1: 65; 2: 73; 3: 99; 4: 10; 5: -1; 6: 49; 7: 19

Give the value of growth inhibition reported for the following: S=C(N/N=C(/c1ccccc1)c1ccccn1)N1CCCCCC1
97

----------
Experiment: NCI Yeast Anticancer Drug Screen. Data for the sgs1 strain (AID 173);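 also: 0% = growth of vehicle-only control cultures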
Details: S. cerevisiae sgs1 mutant, at 3.7 µM, active compounds read high
Experimental: Growth inhibition of yeast strains with defined genetic alterations is measured as a screen for potential anti-cancer activity. Selected strains with alterations in DNA damage repair or cell cycle control were exposed to compounds and growth inhibition was measured relative to vehicle treated controls. The strain used in this assay is sgs1
Compounds without any hit were thinned out: in the full panel of roughly 79,000, 15% have a hit.
METRIC: growth inhibition (%)
Answers are plain numbers, in %.

Below, each entry is followed by its recorded growth inhibition result.
>  <COMPOUND>
O=Cc1cccc2ccc3ccccc3c12

>  <growth inhibition, %>
-2

$$$$
>  <COMPOUND>
CN1CCc2ccccc2C1Cc1ccccc1NC(=O)c1sc2ccccc2c1Cl (configuration not stated)

>  <growth inhibition, %>
-20

$$$$
>  <COMPOUND>
BrCC[P+](c1ccccc1)(c1ccccc1)c1ccccc1

>  <growth inhibition, %>
-56

$$$$

State recorded growth inhibition for all listed compounds.
1. CCOC(=O)C1=C(C(=O)c2ccccc2)C(c2ccccc2[N+](=O)[O-])C(C(=O)c2ccccc2)=C(C(=O)OCC)N1
2. N#CN1C2CCC1CC(=O)C2

1
-20

Could you report growth inhibition for every entry in the following list?
1. [O-][n+]1c2ccc(O)cc2nc2ccc(Cl)cc21
2. CC[C@@]1(O)C(=O)OCc2c1cc1n(c2=O)Cc2cc3c(N)cccc3nc2-1
3. COC(=O)C1=C(C(=O)OC)C2(C)C=CC1O2 (configuration not stated)
4. NC(=O)NN=C(CS)CS
5. O=C1Nc2ccc(Cl)c(I)c2C1=O

[10, -2, -4, 5, 23]

Each compound below has a recorded value; state its growth inhibition.
1. COc1cc2c(cc1[N+](=O)[O-])C(=O)C(Br)(Br)CCC2
2. O=C1C2C=CC1C1C(=O)OC(=O)C21 (configuration not stated)

1: 45; 2: -31

----------
test: NCI Yeast Anticancer Drug Screen. Data for the rad14 strain (AID 159);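 also: 0% = growth of vehicle-treated control cultures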; conditions: S. cerevisiae rad14 strain growth inhibition; at 1.2 µM; active compounds read high
This is part of a sample that, as a whole, favours compounds with a hit. Of some 79,000 tested, about 15% had one in any assay.
METRIC: growth inhibition (%)
One number for each entry, in %.

Sample answers from the record:
>  <COMPOUND>
N#Cc1ccc(C2NN=CC23C(=O)c2ccccc2OC3c2ccccc2)cc1 (centres undefined)

>  <UNIT_STRING>
%

>  <RECORDED_RESULT>
0

$$$$
>  <COMPOUND>
OC1CCCc2c1cc1ccc3cccc4ccc2c1c34 (centres undefined)

>  <UNIT_STRING>
%

>  <RECORDED_RESULT>
0

$$$$
>  <COMPOUND>
C[Si](C)(C)CNC(=O)OCc1ccccc1

>  <UNIT_STRING>
%

>  <RECORDED_RESULT>
-1

$$$$

Give recorded growth inhibition. O=C1C=CC(=O)N1c1ccc2c(c1)Cc1cc(NC(=O)C(F)(F)F)ccc1-2
20

Values compiled from PubChem BioAssay (NCI).
